assay: in vivo; conditions: nude, mouse, plasma, iv
Readout: Cmax (ng/mL)
Kindly provide the numeric value in ng/mL only, without the unit symbol.

Prompt: Specify measured Cmax for CC[C@]1(O)C[C@H]2CN(CCc3c([nH]c4ccccc34)[C@@](C(=O)OC)(c3cc4c(cc3OC)N(C=O)[C@H]3[C@@](O)(C(=O)OC)[C@H](OC(C)=O)[C@]5(CC)C=CCN6CC[C@]43[C@@H]65)C2)C1 [Vincristine (VCR), Vincristine] .
Completion: 1370

Now look at this entry.
Prompt: Specify measured Cmax for CC[C@@]1(O)C(=O)OCc2c1cc1n(c2=O)Cc2cc3c(CN(C)C)c(O)ccc3nc2-1 [Topotecan (TPT), Topotecan] .
Completion: 3980

----------
Reported MRT values follow for various molecules
assay: in vivo; conditions: nude, mouse, plasma, iv
Kindly provide the numeric value in h only, without the unit symbol.

Prompt: Specify measured MRT for CC[C@@]1(O)C(=O)OCc2c1cc1n(c2=O)Cc2cc3c(CN(C)C)c(O)ccc3nc2-1 [Topotecan (TPT), Topotecan] .
Completion: 0.6

Now look at this entry.
Prompt: Specify measured MRT for CC[C@]1(O)C[C@H]2CN(CCc3c([nH]c4ccccc34)[C@@](C(=O)OC)(c3cc4c(cc3OC)N(C=O)[C@H]3[C@@](O)(C(=O)OC)[C@H](OC(C)=O)[C@]5(CC)C=CCN6CC[C@]43[C@@H]65)C2)C1 [Vincristine (VCR), Vincristine] .
Completion: 1.73

Source listed as patent US20130052259A1.
